Reference source: the supplement of paper PMC9170038

- Test system: MS2 coat protein
- assayOverview: apparent KD of MS2 coat protein; designed switch direction (-1 OFF switch, 1 ON switch): -1; higher = weaker reporter binding
- testContext: Eterna round: R95; input ligand: microRNA oligo, concentration not stated
Use 0.03 µM as the dividing line for apparent KD of MS2 coat protein, with the line itself on the Fulfilled side and lower values as Not fulfilled.

Some solved entries appear below for comparison.
{"monomerSequence": "GUGAAACAUGAGGAUCACCCAUGUGAGGAUAUGAUUUAGUAAUGGAGACAGUACAUAUUCAGAAGGCACAAUGG [Mat - Mod of JL D76] (puzzle: Exclusion 1)", "classLabel": "Fulfilled"}
{"monomerSequence": "UUAGUGUGAGGAUAUGGUAAAGAUAAGAUGAUGAAAGAACUCCAGAAGGCACAUGAGGAUCACCCAUGUAGAUG [JL-ex4-2.13 Jieux mod] (puzzle: Exclusion 4)", "classLabel": "Fulfilled"}
{"monomerSequence": "CCUCAGGCGGAGGAUAUCUAACAACAAUAACAAAGAGAAGGCCGCACAUGAGGAUCACCCAUGUGUAUGGGCCG [Bitierre] (puzzle: Exclusion 6)", "classLabel": "Not fulfilled"}

Qu. Determine whether this sequence has apparent KD of MS2 coat protein no lower than 0.03 µM: CCCGUGUUAGGAUAUACGGCACACCCACCAGCGGGUGUAUAGUAGAAGGAACAUGAGGAUCACCCAUGUAUAAC [Inardiza] (puzzle: Exclusion 4)
Ans. Fulfilled

Qu. Try this sequence next: GAAAAGGUAGGAUAUACGAAAAAAAAGUGUAGAAAAAAAACACAUGAGGAUCACCCAUGUAGAAGGACCAAAAG [salish99_ex2_r3_069] (puzzle: Exclusion 2)
Ans. Fulfilled

Qu. Try this sequence next: UCGGCGCGAGGAUAUGCGGCUGGUGCUUCGGGCUCUGGCGUACAUGAGGAUCACCCAUGUAGAAGGCGCGCCGC [Apr-15 SS2-42] (puzzle: Exclusion 2)
Ans. Not fulfilled

Qu. Try this sequence next: UCAUACGAUGAGGAUAUCUCAGUUAAAGUAUUUAGAGAAGGCGUUACAUGAGGAUCACCCAUGUUUAUGGGCAU [Ex-6 Malc#7] (puzzle: Exclusion 6)
Ans. Fulfilled
